assayProtocol: Solubility of the compound in water
Type: physicochemical
appliedConditions: buffer
measuredMetric: solubility

Solved entries (count: 5):
- smilesInput: "CCN(CC)c1nc2c(C(=O)OC)c(O)c(I)c(-n3cccc3)c2s1"
  solubility: "Insoluble"
- smilesInput: "CCNC(=O)c1c(O)c(I)c(-n2cccc2)c2sc(N(CC)CC)nc12"
  solubility: "Insoluble"
- smilesInput: "O=C(O)c1cc(I)c(-n2cccc2)c(I)c1O"
  solubility: "Soluble"
- smilesInput: "CN(C)CCNC(=O)c1cc(I)c(-n2cccc2)c(I)c1O"
  solubility: "Insoluble"
- smilesInput: "CNC(=O)c1cc(I)c(-n2cccc2)c(I)c1O"
  solubility: "Insoluble"

Q. # get_value(readout='solubility', item= COC(=O)c1cc(I)c(-n2cccc2)c(I)c1O )
A. Insoluble

Q. Sample O=C(O)c1cc(I)cc(I)c1O — what was its solubility?
A. Soluble
